# system: ENT1 (Homo sapiens, UniProt Q99808)
# Sequence (Q99808 whole entry): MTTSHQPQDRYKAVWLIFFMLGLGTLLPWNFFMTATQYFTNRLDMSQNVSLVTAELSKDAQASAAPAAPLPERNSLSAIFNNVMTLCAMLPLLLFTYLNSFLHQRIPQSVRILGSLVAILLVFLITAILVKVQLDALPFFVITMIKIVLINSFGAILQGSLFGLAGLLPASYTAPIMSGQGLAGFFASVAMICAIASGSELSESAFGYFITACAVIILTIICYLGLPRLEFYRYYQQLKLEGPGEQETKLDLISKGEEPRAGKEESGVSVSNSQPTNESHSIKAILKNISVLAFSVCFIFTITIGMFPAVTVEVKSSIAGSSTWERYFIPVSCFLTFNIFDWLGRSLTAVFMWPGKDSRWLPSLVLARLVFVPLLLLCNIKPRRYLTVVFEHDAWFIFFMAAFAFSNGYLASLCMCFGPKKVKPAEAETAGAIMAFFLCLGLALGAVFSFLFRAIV
# test_description: Inhibition of ENT1-mediated [3H]-uridine uptake in HAP1 ENT2-KO cells
# Type: cell-based
# settings: 10 µM TKI; HAP1-ENT2 KO cells; [3H]-uridine uptake 5 min at 37 °C
Reported % inhibition of ENT1 activity (mean ± SD) values for a set of compounds
Give just the number in %; leave the unit off.

Consider the following illustrative entries.
CCc1cc2c(cc1N1CCC(N3CCOCC3)CC1)C(C)(C)c1[nH]c3cc(C#N)ccc3c1C2=O [Alectinib, alectinib]    54.0
CCCS(=O)(=O)Nc1ccc(F)c(C(=O)c2c[nH]c3ncc(-c4ccc(Cl)cc4)cc23)c1F [Vemurafenib, vemurafenib]    27.3
C[C@@H]1CCN(C(=O)CC#N)C[C@@H]1N(C)c1ncnc2[nH]ccc12 [Tofacitinib, tofacitinib]    4.8
Cc1cc(Nc2ncc(Cl)c(Nc3ccccc3S(=O)(=O)C(C)C)n2)c(OC(C)C)cc1C1CCNCC1 [Ceritinib, ceritinib]    26.3
C[C@H]1Oc2cc(cnc2N)-c2c(nn(C)c2C#N)CN(C)C(=O)c2ccc(F)cc21 [Lorlatinib]    86.6

Item COc1cc2nccc(Oc3ccc(NC(=O)NC4CC4)c(Cl)c3)c2cc1C(N)=O [Lenvatinib, lenvatinib] has what recorded % inhibition of ENT1 activity (mean ± SD)?
63.1

###

# system: ENT1 (Homo sapiens, UniProt Q99808)
# test_description: Prediction of in vivo ENT1 inhibition
# settings: predicted if Imax,u/IC50 ≥ 0.1
value_kind: Predicted in vivo inhibition

Consider the following illustrative entries.
C=CC(=O)N1CCC[C@@H](n2nc(-c3ccc(Oc4ccccc4)cc3)c3c(N)ncnc32)C1    No
C1=C/COCc2cc(ccc2OCCN2CCCC2)Nc2nccc(n2)-c2cccc(c2)COC/1    No
C[C@H]1Oc2cc(cnc2N)-c2c(nn(C)c2C#N)CN(C)C(=O)c2ccc(F)cc21    Yes
CCOc1cc2ncc(C#N)c(Nc3ccc(OCc4ccccn4)c(Cl)c3)c2cc1NC(=O)/C=C/CN(C)C    No

// switching to the query compound
Item COc1cc2nccc(Oc3ccc(NC(=O)NC4CC4)c(Cl)c3)c2cc1C(N)=O has what recorded Predicted in vivo inhibition?
No

###

# test_description: Maximum plasma concentration of TKIs
# Assay type: in vivo
# settings: from Cmax and fu
value_kind: Imax,u (maximum unbound plasma concentration) (nM)
Give just the number in nM; leave the unit off.

Consider the following illustrative entries.
CCOc1cc2ncc(C#N)c(Nc3ccc(OCc4ccccn4)c(Cl)c3)c2cc1NC(=O)/C=C/CN(C)C [Neratinib, neratinib]    1.46
C1=C/COCc2cc(ccc2OCCN2CCCC2)Nc2nccc(n2)-c2cccc(c2)COC/1 [Pacritinib]    247.5
C=CC(=O)N1CCC[C@@H](n2nc(-c3ccc(Oc4ccccc4)cc3)c3c(N)ncnc32)C1 [Ibrutinib, ibrutinib]    9.56

// switching to the query compound
Item C[C@H]1Oc2cc(cnc2N)-c2c(nn(C)c2C#N)CN(C)C(=O)c2ccc(F)cc21 [Lorlatinib] has what recorded Imax,u (maximum unbound plasma concentration)?
485

###

# system: ENT1 (Homo sapiens, UniProt Q99808)
# test_description: Inhibition of ENT1-mediated [3H]-uridine uptake in HAP1 ENT2-KO cells
# Format: cell-based
# settings: 10 µM TKI; HAP1-ENT2 KO cells; [3H]-uridine uptake 5 min at 37 °C
# if value of % inhibition of ENT1 activity (mean ± SD) reaches 30%, tag Y; if it stays below, tag N

Please review the following examples before continuing.
C[C@@H](Oc1cc(-c2cnn(C3CCNCC3)c2)cnc1N)c1c(Cl)ccc(F)c1Cl    Y
C=CC(=O)Nc1cc(Nc2nccc(-c3cn(C)c4ccccc34)n2)c(OC)cc1N(C)CCN(C)C    Y
N#CCC1(n2cc(-c3ncnc4[nH]ccc34)cn2)CN(C2CCN(C(=O)c3ccnc(C(F)(F)F)c3F)CC2)C1    N
COc1cc(N2CCC(N3CCN(C)CC3)CC2)ccc1Nc1ncc(Cl)c(Nc2ccccc2P(C)(C)=O)n1    Y
CN(C)C(=O)c1cc2cnc(Nc3ccc(N4CCNCC4)cn3)nc2n1C1CCCC1    N

Kindly determine if % inhibition of ENT1 activity (mean ± SD) recorded for C=CC(=O)N1CCC[C@@H](n2nc(-c3ccc(Oc4ccccc4)cc3)c3c(N)ncnc32)C1 is above or exactly 30%.
Y

Kindly determine if % inhibition of ENT1 activity (mean ± SD) recorded for COC(=O)c1ccc2c(c1)NC(=O)/C2=C(\Nc1ccc(N(C)C(=O)CN2CCN(C)CC2)cc1)c1ccccc1 is above or exactly 30%.
Y

###

Reported % inhibition of ENT1 activity (mean ± SD) values for a set of compounds
# system: ENT1 (Homo sapiens, UniProt Q99808)
# test_description: Inhibition of ENT1-mediated [3H]-uridine uptake in HAP1 ENT2-KO cells
# Type: cell-based
# settings: 10 µM TKI; HAP1-ENT2 KO cells; [3H]-uridine uptake 5 min at 37 °C
Give just the number in %; leave the unit off.

CCOc1cc2ncc(C#N)c(Nc3ccc(OCc4ccccn4)c(Cl)c3)c2cc1NC(=O)/C=C/CN(C)C [Neratinib, neratinib]    61.0
C1=C/COCc2cc(ccc2OCCN2CCCC2)Nc2nccc(n2)-c2cccc(c2)COC/1 [Pacritinib]    61.6

Can you look up % inhibition of ENT1 activity (mean ± SD) on ENT1 (Homo sapiens, UniProt Q99808) for CC#CC(=O)N1CCC[C@H]1c1nc(-c2ccc(C(=O)Nc3ccccn3)cc2)c2c(N)nccn12 [Acalabrutinib, acalabrutinib] ?
42.6

###

# system: ENT1 (Homo sapiens, UniProt Q99808)
# test_description: Inhibition of ENT1-mediated [3H]-uridine uptake in HAP1 ENT2-KO cells
# Format: cell-based
# settings: 10 µM TKI; HAP1-ENT2 KO cells; [3H]-uridine uptake 5 min at 37 °C
value_kind: % inhibition of ENT1 activity (mean ± SD) (%)
Give just the number in %; leave the unit off.

CCN1CCN(Cc2ccc(Nc3ncc(F)c(-c4cc(F)c5nc(C)n(C(C)C)c5c4)n3)nc2)CC1 [Abemaciclib, abemaciclib]    25.0

Item CN1CCN(c2ccc(C(=O)Nc3n[nH]c4ccc(Cc5cc(F)cc(F)c5)cc34)c(NC3CCOCC3)c2)CC1 [Entrectinib, entrectinib] has what recorded % inhibition of ENT1 activity (mean ± SD)?
22.9

Item COc1cc2ncnc(Nc3ccc(F)c(Cl)c3)c2cc1NC(=O)/C=C/CN1CCCCC1 [Dacomitinib, dacomitinib] has what recorded % inhibition of ENT1 activity (mean ± SD)?
43.9

Item COc1cc2nccc(Oc3ccc(NC(=O)C4(C(=O)Nc5ccc(F)cc5)CC4)cc3)c2cc1OC [Cabozantinib, cabozantinib] has what recorded % inhibition of ENT1 activity (mean ± SD)?
48.8

Item N#CC[C@H](C1CCCC1)n1cc(-c2ncnc3[nH]ccc23)cn1 [Ruxolitinib, ruxolitinib] has what recorded % inhibition of ENT1 activity (mean ± SD)?
34.1

Item CNC(=O)c1cc(Oc2ccc(NC(=O)Nc3ccc(Cl)c(C(F)(F)F)c3)c(F)c2)ccn1 [Regorafenib, regorafenib] has what recorded % inhibition of ENT1 activity (mean ± SD)?
21.4

Item CN(C)C/C=C/C(=O)Nc1cc2c(Nc3ccc(F)c(Cl)c3)ncnc2cc1O[C@H]1CCOC1 [Afatinib, afatinib] has what recorded % inhibition of ENT1 activity (mean ± SD)?
54.5

Ref: paper PMC8286641
